test system: Caco-2 cell monolayers; assay: Transport of semaglutide across Caco-2 cell monolayers in the presence of fatty acid acylated amino acids; format: in vitro ADME; conditions: permeation of semaglutide (100 μM), apical to basolateral, with 0.5 mM fatty acid acylated amino acid, pH 7.4
Reported Papp values follow for various molecules

The cases that follow already have their Papp on record.
CCCCCCCCCCCCCC(=O)N[C@@H](CC(C)C)C(=O)[O-].[Na+] [Sodium N-myristoyl L-leucinate] | 63.88 10^−8 cm/s
CCCCCCCCCC(=O)N[C@@H](CC(C)C)C(=O)[O-].[Na+] [Sodium N-decanoyl L-leucinate] | 2.12 10^−8 cm/s

Enquiry: Lookup: Papp / Caco-2 cell monolayers / CCCCCCCCCCCCCC(=O)N[C@H](C(=O)[O-])C(C)C.[Na+] [Sodium N-myristoyl L-valinate]
Return: 78.83 10^−8 cm/s

Enquiry: Check CCCCCCCCCCCC(=O)N[C@@H](Cc1ccccc1)C(=O)[O-].[Na+] [Sodium N-dodecanoyl L-phenylalaninate] too.
Return: 5.60 10^−8 cm/s

Enquiry: How about this molecule: CCCCCCCCCCCC(=O)N[C@@H](CC(C)C)C(=O)[O-].[Na+] [Sodium N-dodecanoyl L-leucinate]
Return: 2.53 10^−8 cm/s

Enquiry: Note, next up: CCCCCCCCCC(=O)N[C@@H](CC(N)=O)C(=O)[O-].[Na+] [Sodium N-decanoyl L-asparaginate]
Return: 0.31 10^−8 cm/s
